Origin of measurements: ChEMBL document CHEMBL1143356

Biological target: Cannabinoid receptor 1 (Rattus norvegicus, UniProt P20272)
Sequence (P20272 whole entry): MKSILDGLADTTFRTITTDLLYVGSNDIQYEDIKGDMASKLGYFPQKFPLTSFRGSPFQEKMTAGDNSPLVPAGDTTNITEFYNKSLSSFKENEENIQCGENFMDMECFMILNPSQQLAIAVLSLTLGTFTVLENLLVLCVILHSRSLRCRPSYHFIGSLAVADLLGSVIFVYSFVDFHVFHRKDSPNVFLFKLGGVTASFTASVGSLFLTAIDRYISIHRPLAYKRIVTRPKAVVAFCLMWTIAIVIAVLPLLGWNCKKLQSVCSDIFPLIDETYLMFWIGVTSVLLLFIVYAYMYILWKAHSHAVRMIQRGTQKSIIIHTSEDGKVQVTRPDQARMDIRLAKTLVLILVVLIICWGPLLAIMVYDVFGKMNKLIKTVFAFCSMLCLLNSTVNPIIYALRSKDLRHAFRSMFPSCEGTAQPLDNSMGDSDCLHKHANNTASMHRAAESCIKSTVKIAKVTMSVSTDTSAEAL
Test: Displacement of [3H]WIN-55212-2 from CB1 receptor in rat cerebellar membrane by liquid scintillation counting
Quick list: IC50 per entry.

[
  {
    "molecule": "Cc1c(C(=O)NC2C3CC4CC(C3)CC2C4)c(Br)c(-c2ccccc2)n1Cc1ccc(Cl)cc1 (configuration not stated)",
    "IC50": "> 1000 nM"
  },
  {
    "molecule": "Cc1c(C(=O)c2ccccc2)cc(-c2ccccc2)n1Cc1ccc(Cl)cc1",
    "IC50": "> 1000 nM"
  },
  {
    "molecule": "Cc1c(C(=O)NC2C3CC4CC(C3)CC2C4)cc(-c2ccccc2)n1Cc1ccc(Cl)cc1 (configuration not stated)",
    "IC50": "70 nM"
  },
  {
    "molecule": "Cc1c(C(=O)c2ccccc2)c(N)c(-c2ccccc2)n1Cc1ccc(Cl)cc1",
    "IC50": "313 nM"
  },
  {
    "molecule": "Cc1c(C(=O)NC2CC3CCC2C3)cc(-c2ccccc2)n1Cc1ccc(Cl)cc1 (configuration not stated)",
    "IC50": "> 1000 nM"
  },
  {
    "molecule": "Cc1[nH]c(-c2ccccc2)c(N)c1C(=O)c1ccccc1",
    "IC50": "> 1000 nM"
  },
  {
    "molecule": "Cc1c(C(=O)NN2CCCCC2)cc(-c2ccccc2)n1Cc1ccc(Cl)cc1",
    "IC50": "> 1000 nM"
  }
]

---

Experiment: Plasma concentration in Swiss mouse at 20 mg/kg, ip after 30 mins
Format: ADME, organism-based
Set-up: dose 20 mg/kg, route intraperitoneal
Details: read-out: Cmax

[
  {
    "smilesCode": "Cc1c(C(=O)c2ccccc2)c(N)c(-c2ccccc2)n1Cc1ccc(Cl)cc1",
    "concentration at 0.5 h [nM]": 596
  }
]
